Cited source for all entries: the supplement of paper PMC13386468

# measured on: UniProt C6KT23
# assay notes: IC50 for competition of protein binding to Kinobeads
# run conditions: assay detail: Kinobeads competition in P. falciparum blood-stage lysate
property measured: IC50

Form entry - test system: UniProt C6KT23; read-out: IC50; compound: O=c1[nH]c2ccc(Cl)cc2c(NC2CN3CCC2CC3)c1-c1nc2ccccc2[nH]1 (stereo unspecified) [CHIR-124]
> 20 µM

----------
# measured on: UniProt Q8I0U8
# Sequence (Q8I0U8 whole entry): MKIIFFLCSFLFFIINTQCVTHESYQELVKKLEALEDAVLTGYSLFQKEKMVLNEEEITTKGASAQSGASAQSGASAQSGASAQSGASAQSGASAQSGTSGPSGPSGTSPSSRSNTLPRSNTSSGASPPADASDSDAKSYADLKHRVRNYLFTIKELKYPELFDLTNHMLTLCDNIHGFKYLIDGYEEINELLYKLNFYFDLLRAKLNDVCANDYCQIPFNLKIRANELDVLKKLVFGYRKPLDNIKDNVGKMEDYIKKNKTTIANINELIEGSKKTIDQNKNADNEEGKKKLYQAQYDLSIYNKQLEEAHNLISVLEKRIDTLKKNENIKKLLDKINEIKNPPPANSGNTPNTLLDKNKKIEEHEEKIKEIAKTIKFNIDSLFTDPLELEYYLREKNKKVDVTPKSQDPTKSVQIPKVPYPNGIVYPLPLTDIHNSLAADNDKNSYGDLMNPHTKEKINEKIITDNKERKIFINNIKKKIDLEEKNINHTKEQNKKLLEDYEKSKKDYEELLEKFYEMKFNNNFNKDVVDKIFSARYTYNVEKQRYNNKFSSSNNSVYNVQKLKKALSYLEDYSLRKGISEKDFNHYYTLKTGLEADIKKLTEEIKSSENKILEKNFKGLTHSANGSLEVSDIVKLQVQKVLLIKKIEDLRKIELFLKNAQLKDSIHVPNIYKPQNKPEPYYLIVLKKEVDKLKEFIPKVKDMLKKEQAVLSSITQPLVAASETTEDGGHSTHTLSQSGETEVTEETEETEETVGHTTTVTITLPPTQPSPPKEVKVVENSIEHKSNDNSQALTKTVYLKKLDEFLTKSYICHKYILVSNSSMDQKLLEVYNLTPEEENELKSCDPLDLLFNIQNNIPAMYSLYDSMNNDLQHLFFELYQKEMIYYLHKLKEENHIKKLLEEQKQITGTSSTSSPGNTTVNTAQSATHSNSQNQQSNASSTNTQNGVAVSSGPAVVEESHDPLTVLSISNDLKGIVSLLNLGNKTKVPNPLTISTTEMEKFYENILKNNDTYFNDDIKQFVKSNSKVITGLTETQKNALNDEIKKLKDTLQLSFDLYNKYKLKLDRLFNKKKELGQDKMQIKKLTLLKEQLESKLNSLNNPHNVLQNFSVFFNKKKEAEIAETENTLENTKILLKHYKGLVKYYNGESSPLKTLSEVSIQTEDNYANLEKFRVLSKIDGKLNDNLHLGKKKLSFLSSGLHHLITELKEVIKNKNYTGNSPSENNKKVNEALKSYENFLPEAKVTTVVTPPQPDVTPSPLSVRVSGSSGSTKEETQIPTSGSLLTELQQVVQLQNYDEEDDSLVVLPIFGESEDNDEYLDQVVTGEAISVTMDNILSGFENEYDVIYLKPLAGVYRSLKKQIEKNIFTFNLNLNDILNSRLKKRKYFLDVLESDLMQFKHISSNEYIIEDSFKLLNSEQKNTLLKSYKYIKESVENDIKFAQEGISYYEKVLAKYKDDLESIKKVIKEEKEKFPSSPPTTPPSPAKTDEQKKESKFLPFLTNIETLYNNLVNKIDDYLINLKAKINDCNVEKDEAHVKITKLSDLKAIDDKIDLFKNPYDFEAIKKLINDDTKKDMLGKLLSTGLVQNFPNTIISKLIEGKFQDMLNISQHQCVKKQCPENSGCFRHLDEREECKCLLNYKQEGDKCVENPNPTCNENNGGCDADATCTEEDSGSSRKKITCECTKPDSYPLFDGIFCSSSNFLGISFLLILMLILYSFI
# assay notes: IC50 for competition of protein binding to Kinobeads
# run conditions: assay detail: Kinobeads competition in P. falciparum blood-stage lysate
pIC50: −log10 of the molar value.
property measured: pIC50

Look up pIC50: O=c1[nH]c2ccc(Cl)cc2c(NC2CN3CCC2CC3)c1-c1nc2ccccc2[nH]1 (stereo unspecified)
< 4.70

----------
# measured on: UniProt Q8I5H7
# assay notes: IC50 for competition of protein binding to Kinobeads
# run conditions: assay detail: Kinobeads competition in P. falciparum blood-stage lysate
property measured: IC50

Look up IC50: O=c1[nH]c2ccc(Cl)cc2c(NC2CN3CCC2CC3)c1-c1nc2ccccc2[nH]1 (stereo unspecified) [CHIR-124]
> 20 µM

----------
# measured on: UniProt C6KSQ1
# assay notes: apparent dissociation constant (Kd app) from Kinobeads competition
# run conditions: assay detail: Kinobeads competition in P. falciparum blood-stage lysate
property measured: Kd (nM)
Output spec: scalar in nM, unitless text.

Look up Kd: O=c1[nH]c2ccc(Cl)cc2c(NC2CN3CCC2CC3)c1-c1nc2ccccc2[nH]1 (stereo unspecified)
168

----------
# measured on: UniProt Q8IIG7
# Sequence (Q8IIG7 whole entry): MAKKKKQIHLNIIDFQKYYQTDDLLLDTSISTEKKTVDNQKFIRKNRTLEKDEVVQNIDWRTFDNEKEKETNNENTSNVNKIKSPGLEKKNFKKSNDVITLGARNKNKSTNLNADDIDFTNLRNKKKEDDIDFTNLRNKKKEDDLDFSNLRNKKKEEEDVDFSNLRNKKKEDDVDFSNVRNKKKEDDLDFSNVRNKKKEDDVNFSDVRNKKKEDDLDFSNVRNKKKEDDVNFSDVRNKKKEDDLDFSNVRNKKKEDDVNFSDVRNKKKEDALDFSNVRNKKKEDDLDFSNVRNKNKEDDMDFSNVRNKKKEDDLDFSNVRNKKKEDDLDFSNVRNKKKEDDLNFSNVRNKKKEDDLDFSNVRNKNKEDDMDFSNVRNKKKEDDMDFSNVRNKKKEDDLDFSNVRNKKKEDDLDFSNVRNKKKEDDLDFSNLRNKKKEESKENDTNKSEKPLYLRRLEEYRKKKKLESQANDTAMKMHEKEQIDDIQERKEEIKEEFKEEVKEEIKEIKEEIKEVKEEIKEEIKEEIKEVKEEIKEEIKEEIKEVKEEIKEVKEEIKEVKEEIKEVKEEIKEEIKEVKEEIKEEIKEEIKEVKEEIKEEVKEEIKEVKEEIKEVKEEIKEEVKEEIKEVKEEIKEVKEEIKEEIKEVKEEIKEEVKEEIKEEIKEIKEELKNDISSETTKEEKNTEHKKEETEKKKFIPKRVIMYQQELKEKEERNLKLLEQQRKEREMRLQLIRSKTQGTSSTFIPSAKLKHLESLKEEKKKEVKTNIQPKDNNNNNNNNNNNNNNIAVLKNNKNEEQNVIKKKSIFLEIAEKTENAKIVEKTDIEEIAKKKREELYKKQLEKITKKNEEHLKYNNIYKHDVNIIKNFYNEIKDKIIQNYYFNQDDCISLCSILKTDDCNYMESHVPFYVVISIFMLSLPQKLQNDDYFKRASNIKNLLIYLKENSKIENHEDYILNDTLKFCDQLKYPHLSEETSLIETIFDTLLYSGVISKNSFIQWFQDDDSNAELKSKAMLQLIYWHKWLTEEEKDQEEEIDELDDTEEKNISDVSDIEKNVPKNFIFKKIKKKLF
# assay notes: IC50 for competition of protein binding to Kinobeads
# run conditions: assay detail: Kinobeads competition in P. falciparum blood-stage lysate
pIC50: −log10 of the molar value.
property measured: pIC50

Look up pIC50: O=c1[nH]c2ccc(Cl)cc2c(NC2CN3CCC2CC3)c1-c1nc2ccccc2[nH]1 (stereo unspecified)
< 4.70

----------
# measured on: UniProt Q8IL48
# assay notes: IC50 for competition of protein binding to Kinobeads
# run conditions: assay detail: Kinobeads competition in P. falciparum blood-stage lysate
property measured: IC50

Look up IC50: O=c1[nH]c2ccc(Cl)cc2c(NC2CN3CCC2CC3)c1-c1nc2ccccc2[nH]1 (stereo unspecified)
> 20 µM

----------
# measured on: UniProt Q8I2H3
# assay notes: IC50 for competition of protein binding to Kinobeads
# run conditions: assay detail: Kinobeads competition in P. falciparum blood-stage lysate
property measured: IC50

Look up IC50: O=c1[nH]c2ccc(Cl)cc2c(NC2CN3CCC2CC3)c1-c1nc2ccccc2[nH]1 (stereo unspecified)
> 20 µM

----------
# measured on: UniProt Q8I5A9
# assay notes: IC50 for competition of protein binding to Kinobeads
# run conditions: assay detail: Kinobeads competition in P. falciparum blood-stage lysate
property measured: IC50

Look up IC50: O=c1[nH]c2ccc(Cl)cc2c(NC2CN3CCC2CC3)c1-c1nc2ccccc2[nH]1 (stereo unspecified) [CHIR-124]
> 20 µM

----------
# measured on: UniProt Q8ILQ7
# Sequence (whole entry): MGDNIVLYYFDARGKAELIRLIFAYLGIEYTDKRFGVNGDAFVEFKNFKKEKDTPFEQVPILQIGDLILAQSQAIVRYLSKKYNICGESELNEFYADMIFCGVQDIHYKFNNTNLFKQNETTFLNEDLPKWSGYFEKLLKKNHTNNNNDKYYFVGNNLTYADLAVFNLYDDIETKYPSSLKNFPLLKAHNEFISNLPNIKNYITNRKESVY
# assay notes: IC50 for competition of protein binding to Kinobeads
# run conditions: assay detail: Kinobeads competition in P. falciparum blood-stage lysate
pIC50: −log10 of the molar value.
property measured: pIC50

Look up pIC50: O=c1[nH]c2ccc(Cl)cc2c(NC2CN3CCC2CC3)c1-c1nc2ccccc2[nH]1 (stereo unspecified)
< 4.70

----------
# measured on: UniProt Q8ILL3
# assay notes: IC50 for competition of protein binding to Kinobeads
# run conditions: assay detail: Kinobeads competition in P. falciparum blood-stage lysate
property measured: IC50

Look up IC50: O=c1[nH]c2ccc(Cl)cc2c(NC2CN3CCC2CC3)c1-c1nc2ccccc2[nH]1 (stereo unspecified)
> 20 µM

----------
# measured on: UniProt Q8IKQ7
# assay notes: IC50 for competition of protein binding to Kinobeads
# run conditions: assay detail: Kinobeads competition in P. falciparum blood-stage lysate
pIC50: −log10 of the molar value.
property measured: pIC50

Form entry - test system: UniProt Q8IKQ7; read-out: pIC50; compound: O=c1[nH]c2ccc(Cl)cc2c(NC2CN3CCC2CC3)c1-c1nc2ccccc2[nH]1 (stereo unspecified)
< 4.70

----------
# measured on: UniProt Q8IL08
# assay notes: IC50 for competition of protein binding to Kinobeads
# run conditions: assay detail: Kinobeads competition in P. falciparum blood-stage lysate
pIC50: −log10 of the molar value.
property measured: pIC50

Form entry - test system: UniProt Q8IL08; read-out: pIC50; compound: O=c1[nH]c2ccc(Cl)cc2c(NC2CN3CCC2CC3)c1-c1nc2ccccc2[nH]1 (stereo unspecified)
< 4.70

----------
# measured on: UniProt Q8IJT9
# assay notes: IC50 for competition of protein binding to Kinobeads
# run conditions: assay detail: Kinobeads competition in P. falciparum blood-stage lysate
pIC50: −log10 of the molar value.
property measured: pIC50

Look up pIC50: O=c1[nH]c2ccc(Cl)cc2c(NC2CN3CCC2CC3)c1-c1nc2ccccc2[nH]1 (stereo unspecified) [CHIR-124]
< 4.70

----------
# measured on: UniProt Q8IIB7
# assay notes: IC50 for competition of protein binding to Kinobeads
# run conditions: assay detail: Kinobeads competition in P. falciparum blood-stage lysate
pIC50: −log10 of the molar value.
property measured: pIC50

Look up pIC50: O=c1[nH]c2ccc(Cl)cc2c(NC2CN3CCC2CC3)c1-c1nc2ccccc2[nH]1 (stereo unspecified)
< 4.70

----------
# measured on: UniProt Q8IC35
# assay notes: IC50 for competition of protein binding to Kinobeads
# run conditions: assay detail: Kinobeads competition in P. falciparum blood-stage lysate
pIC50: −log10 of the molar value.
property measured: pIC50

Look up pIC50: O=c1[nH]c2ccc(Cl)cc2c(NC2CN3CCC2CC3)c1-c1nc2ccccc2[nH]1 (stereo unspecified) [CHIR-124]
< 4.70

----------
# measured on: UniProt Q8I1P3
# assay notes: IC50 for competition of protein binding to Kinobeads
# run conditions: assay detail: Kinobeads competition in P. falciparum blood-stage lysate
pIC50: −log10 of the molar value.
property measured: pIC50

Look up pIC50: O=c1[nH]c2ccc(Cl)cc2c(NC2CN3CCC2CC3)c1-c1nc2ccccc2[nH]1 (stereo unspecified) [CHIR-124]
< 4.70

----------
# measured on: UniProt Q8IB44
# assay notes: IC50 for competition of protein binding to Kinobeads
# run conditions: assay detail: Kinobeads competition in P. falciparum blood-stage lysate
property measured: IC50

Look up IC50: O=c1[nH]c2ccc(Cl)cc2c(NC2CN3CCC2CC3)c1-c1nc2ccccc2[nH]1 (stereo unspecified)
> 20 µM

----------
# measured on: UniProt Q8IE82
# assay notes: IC50 for competition of protein binding to Kinobeads
# run conditions: assay detail: Kinobeads competition in P. falciparum blood-stage lysate
pIC50: −log10 of the molar value.
property measured: pIC50

Look up pIC50: O=c1[nH]c2ccc(Cl)cc2c(NC2CN3CCC2CC3)c1-c1nc2ccccc2[nH]1 (stereo unspecified)
< 4.70

----------
# measured on: UniProt Q8ILY9
# assay notes: IC50 for competition of protein binding to Kinobeads
# run conditions: assay detail: Kinobeads competition in P. falciparum blood-stage lysate
pIC50: −log10 of the molar value.
property measured: pIC50

Look up pIC50: O=c1[nH]c2ccc(Cl)cc2c(NC2CN3CCC2CC3)c1-c1nc2ccccc2[nH]1 (stereo unspecified)
< 4.70

----------
# measured on: UniProt Q8ID59
# assay notes: IC50 for competition of protein binding to Kinobeads
# run conditions: assay detail: Kinobeads competition in P. falciparum blood-stage lysate
pIC50: −log10 of the molar value.
property measured: pIC50

Look up pIC50: O=c1[nH]c2ccc(Cl)cc2c(NC2CN3CCC2CC3)c1-c1nc2ccccc2[nH]1 (stereo unspecified)
< 4.70

----------
# measured on: UniProt Q8IAM4
# assay notes: apparent dissociation constant (Kd app) from Kinobeads competition
# run conditions: assay detail: Kinobeads competition in P. falciparum blood-stage lysate
property measured: pKd
A value of pKd is the negative decimal logarithm of a concentration given in moles per litre.

Look up pKd: O=c1[nH]c2ccc(Cl)cc2c(NC2CN3CCC2CC3)c1-c1nc2ccccc2[nH]1 (stereo unspecified)
5.12

----------
# measured on: UniProt Q8I5H9
# assay notes: IC50 for competition of protein binding to Kinobeads
# run conditions: assay detail: Kinobeads competition in P. falciparum blood-stage lysate
property measured: pIC50
A value of pIC50 is the negative decimal logarithm of a concentration given in moles per litre.

Look up pIC50: O=c1[nH]c2ccc(Cl)cc2c(NC2CN3CCC2CC3)c1-c1nc2ccccc2[nH]1 (stereo unspecified)
4.85
